B1: Glucocorticoid receptor, residues 419 to 494; numbered along this chain, P04150 (parent)
chain: KLCLVCSDEASGCHYGVLTCGSCKVFFKRAVEGQHNYLCAGRNDCIIDKIRRKNCPACRYRKCLQAGMNLEARKTK

Variants of: B1
Test: abundance fitness (aPCA) (normalised: wild type 0, dead -1); higher = more abundant; growth selection in yeast, the domain comes from the species named
Details: Homo sapiens
Label scheme, based on abundance fitness: lo (below -0.2), med (-0.2 to below -0.04), hi (-0.04 or more)

Into which bin does this variant go? "C45H"
med

Same question for "A57E" please.
med

Same question for "L18P" please.
hi

Same question for "T75L" please.
hi

Same question for "F26Y" please.
lo

Same question for "S7A" please.
hi

Same question for "D48P" please.
lo

Same question for "C3N" please.
lo

Same question for "L38H" please.
hi

Same question for "F26W" please.
lo

Same question for "T75H" please.
hi

Same question for "L4W" please.
med

Same question for "T75R" please.
hi

Same question for "R51P" please.
med

Same question for "Y37R" please.
lo

Same question for "N69V" please.
med

Same question for "Y37Q" please.
med

Same question for "I47K" please.
lo

Same question for "L38Y" please.
hi

Same question for "L4V" please.
med

Same question for "G67D" please.
lo

Same question for "F26N" please.
lo

Same question for "V31Q" please.
hi

Same question for "E9N" please.
hi

Same question for "N43D" please.
hi

Same question for "L38V" please.
hi

Same question for "I47D" please.
med

Same question for "D8W" please.
lo

Same question for "D8E" please.
hi

Same question for "C3F" please.
lo

Same question for "R61S" please.
hi

Same question for "D44A" please.
hi

Same question for "R61P" please.
lo

Same question for "S11F" please.
med

Same question for "L70R" please.
hi

Same question for "Y60C" please.
lo

Same question for "P56M" please.
med

Same question for "D44N" please.
med

Same question for "K62G" please.
med

Same question for "R61Y" please.
med

Same question for "I47M" please.
med

Same question for "Y60A" please.
lo

Same question for "F26L" please.
lo

Same question for "Q34N" please.
hi

Same question for "A57M" please.
lo
